# % engagement BCKDK_C118 per record follows
# Target or system: BCKDK_C118 (Homo sapiens, UniProt O14874)
# Construct: endogenous in cells; host or cells: 22Rv1
# Method notes: IA-DTB cysteine engagement
# Type: binding
# Condition set: 22Rv1 cells, 20 μM probe, 1 h, relative to DMSO
Measurement kind: % engagement BCKDK_C118 (%)

INSERT INTO assay_data (molecule, units_of_measure, observed_value) VALUES
  ('C=CC(=O)N1C[C@@H](c2ccc(Br)cc2)[C@H]1C(=O)Nc1cccc2cccnc12', '%', 55.5),
  ('C=CC(=O)N1C[C@H](c2ccc(Br)cc2)[C@H]1C(=O)Nc1cccc2cccnc12 [MY-3B]', '%', 78.5),
  ('C=CC(=O)N1C[C@H](c2ccc(Br)cc2)[C@@H]1C(=O)Nc1cccc2cccnc12', '%', 57.75),
  ('C=CC(=O)N1C[C@H](c2ccc(Br)cc2)[C@H]1C(=O)Nc1cccc2cccnc12 [MY-3A]', '%', 43);

---

# Target or system: LMF2_C659 (Homo sapiens)
# Construct: endogenous in cells; host or cells: 22Rv1
# Sequence (Q9BU23 whole entry): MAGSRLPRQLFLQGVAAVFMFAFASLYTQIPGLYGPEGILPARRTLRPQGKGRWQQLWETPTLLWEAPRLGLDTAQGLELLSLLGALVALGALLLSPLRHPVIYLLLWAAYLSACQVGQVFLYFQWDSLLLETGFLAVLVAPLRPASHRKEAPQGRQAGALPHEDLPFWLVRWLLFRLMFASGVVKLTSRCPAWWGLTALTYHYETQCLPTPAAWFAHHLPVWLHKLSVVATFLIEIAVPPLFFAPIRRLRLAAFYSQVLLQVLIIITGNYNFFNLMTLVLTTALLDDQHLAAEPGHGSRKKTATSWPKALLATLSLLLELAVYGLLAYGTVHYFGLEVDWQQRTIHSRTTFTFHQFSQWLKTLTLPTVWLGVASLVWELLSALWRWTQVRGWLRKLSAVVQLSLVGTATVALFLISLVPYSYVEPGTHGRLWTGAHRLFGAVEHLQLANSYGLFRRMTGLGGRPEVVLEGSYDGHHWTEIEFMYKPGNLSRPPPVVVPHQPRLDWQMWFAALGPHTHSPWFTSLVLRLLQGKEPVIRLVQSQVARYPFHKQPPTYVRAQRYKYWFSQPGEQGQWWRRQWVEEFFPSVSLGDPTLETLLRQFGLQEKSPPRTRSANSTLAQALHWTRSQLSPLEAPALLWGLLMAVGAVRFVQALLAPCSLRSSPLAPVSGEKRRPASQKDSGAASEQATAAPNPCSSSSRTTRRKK
# Method notes: IA-DTB cysteine engagement
# Format: binding
# Condition set: 22Rv1 cells, 20 μM probe, 1 h, relative to DMSO
# Procedure: Sample preparation: Cells (adherent: 15 cm dishes, suspension: 2 million cells/mL) were treated with electrophilic probes in situ for indicated times and concentrations, washed with ice-cold PBS, and flash frozen in liquid nitrogen. […] Whole cell lysates protein content was measured using a standard DC protein assay (Bio-Rad) and 500 μL (2 mg/mL protein content) were treated with 5 μL of 10 mM 1A-DTB (in DMSO) for 1 h at ambient temperature with occasional vortexing. […]
The entries below come with measured % engagement LMF2_C659 values attached.
Measurement kind: % engagement LMF2_C659 (%)

INSERT INTO results (compound, observed_value) VALUES
  ('C=CC(=O)N1C[C@H](c2ccc(Br)cc2)[C@H]1C(=O)Nc1cccc2cccnc12 [MY-3B]', 69.25),
  ('C=CC(=O)N1C[C@H](c2ccc(Br)cc2)[C@H]1C(=O)Nc1cccc2cccnc12 [MY-3A]', 44.75),
  ('C=CC(=O)N1C[C@@H](c2ccc(Br)cc2)[C@H]1C(=O)Nc1cccc2cccnc12', 66),
  ('C=CC(=O)N1C[C@H](c2ccc(Br)cc2)[C@@H]1C(=O)Nc1cccc2cccnc12', 65.75);

---

# Target or system: ZNF346_C68 (Homo sapiens, UniProt Q9UL40)
# Construct: endogenous in cells; host or cells: 22Rv1
# Sequence (Q9UL40 whole entry): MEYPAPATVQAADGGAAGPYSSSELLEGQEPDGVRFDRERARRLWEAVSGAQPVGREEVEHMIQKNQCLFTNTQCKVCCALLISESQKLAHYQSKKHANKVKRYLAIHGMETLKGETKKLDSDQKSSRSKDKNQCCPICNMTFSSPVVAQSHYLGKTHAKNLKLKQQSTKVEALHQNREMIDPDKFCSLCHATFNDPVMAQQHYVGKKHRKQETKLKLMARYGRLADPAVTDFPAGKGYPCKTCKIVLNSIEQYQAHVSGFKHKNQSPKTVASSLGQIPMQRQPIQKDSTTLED
# Method notes: IA-DTB cysteine engagement
# Type: binding
# Condition set: 22Rv1 cells, 20 μM probe, 1 h, relative to DMSO
Measurement kind: % engagement ZNF346_C68

INSERT INTO measurements (molecule, measurement_kind, observed_value) VALUES
  ('C=CC(=O)N1C[C@H](c2ccc(Br)cc2)[C@H]1C(=O)Nc1cccc2cccnc12 [MY-3A]', '% engagement ZNF346_C68', '14%'),
  ('C=CC(=O)N1C[C@@H](c2ccc(Br)cc2)[C@H]1C(=O)Nc1cccc2cccnc12', '% engagement ZNF346_C68', '95.5%'),
  ('C=CC(=O)N1C[C@H](c2ccc(Br)cc2)[C@@H]1C(=O)Nc1cccc2cccnc12', '% engagement ZNF346_C68', '37%'),
  ('C=CC(=O)N1C[C@H](c2ccc(Br)cc2)[C@H]1C(=O)Nc1cccc2cccnc12 [MY-3B]', '% engagement ZNF346_C68', '45.25%');

---

# Target or system: TMEM50A_C13 (Homo sapiens, UniProt O95807)
# Construct: endogenous in cells; host or cells: 22Rv1
# Sequence (O95807 whole entry): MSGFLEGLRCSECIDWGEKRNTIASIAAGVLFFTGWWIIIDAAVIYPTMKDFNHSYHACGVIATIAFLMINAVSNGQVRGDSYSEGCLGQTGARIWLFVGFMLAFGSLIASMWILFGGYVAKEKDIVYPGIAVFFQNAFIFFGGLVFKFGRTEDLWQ
# Method notes: IA-DTB cysteine engagement
# Format: binding
# Condition set: 22Rv1 cells, 20 μM probe, 1 h, relative to DMSO
Measurement kind: % engagement TMEM50A_C13 (%)

INSERT INTO assay_data (molecule, measurement_kind, observed_value) VALUES
  ('C=CC(=O)N1C[C@@H](c2ccc(Br)cc2)[C@H]1C(=O)Nc1cccc2cccnc12 [MY-1A]', '% engagement TMEM50A_C13', 63.5),
  ('C=CC(=O)N1C[C@H](c2ccc(Br)cc2)[C@H]1C(=O)Nc1cccc2cccnc12 [MY-3A]', '% engagement TMEM50A_C13', 60.5),
  ('C=CC(=O)N1C[C@H](c2ccc(Br)cc2)[C@@H]1C(=O)Nc1cccc2cccnc12 [MY-1B]', '% engagement TMEM50A_C13', 58),
  ('C=CC(=O)N1C[C@H](c2ccc(Br)cc2)[C@H]1C(=O)Nc1cccc2cccnc12 [MY-3B]', '% engagement TMEM50A_C13', 68.5);

---

# Target or system: NSUN2_C271 (Homo sapiens, UniProt Q08J23)
# Construct: endogenous in cells; host or cells: 22Rv1
# Sequence (Q08J23 whole entry): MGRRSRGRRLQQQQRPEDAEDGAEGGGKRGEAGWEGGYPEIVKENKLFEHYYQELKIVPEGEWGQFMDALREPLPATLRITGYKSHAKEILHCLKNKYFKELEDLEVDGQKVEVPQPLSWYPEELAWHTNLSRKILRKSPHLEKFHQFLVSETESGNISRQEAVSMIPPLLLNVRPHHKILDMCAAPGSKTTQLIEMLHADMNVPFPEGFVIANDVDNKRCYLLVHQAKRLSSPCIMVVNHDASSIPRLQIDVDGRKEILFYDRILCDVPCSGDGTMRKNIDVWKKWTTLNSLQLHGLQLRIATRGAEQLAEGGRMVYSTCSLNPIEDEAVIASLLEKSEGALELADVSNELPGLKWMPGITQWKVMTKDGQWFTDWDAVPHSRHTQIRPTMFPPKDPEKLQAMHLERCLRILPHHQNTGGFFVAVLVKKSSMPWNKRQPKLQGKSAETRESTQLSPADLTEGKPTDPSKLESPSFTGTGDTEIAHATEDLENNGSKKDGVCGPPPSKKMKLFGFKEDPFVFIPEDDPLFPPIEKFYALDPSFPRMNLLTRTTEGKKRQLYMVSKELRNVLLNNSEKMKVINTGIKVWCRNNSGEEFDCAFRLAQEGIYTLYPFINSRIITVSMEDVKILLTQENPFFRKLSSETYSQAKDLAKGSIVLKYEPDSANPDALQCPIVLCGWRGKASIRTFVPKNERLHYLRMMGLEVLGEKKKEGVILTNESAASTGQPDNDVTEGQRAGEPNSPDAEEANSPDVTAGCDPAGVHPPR
# Method notes: IA-DTB cysteine engagement
# Format: binding
# Condition set: 22Rv1 cells, 20 μM probe, 1 h, relative to DMSO
Measurement kind: % engagement NSUN2_C271 (%)

INSERT INTO results (compound, target_or_system, measurement_kind, observed_value) VALUES
  ('C=CC(=O)N1C[C@@H](c2ccc(Br)cc2)[C@H]1C(=O)Nc1cccc2cccnc12', 'NSUN2_C271 (Homo sapiens, UniProt Q08J23)', '% engagement NSUN2_C271', 42.25),
  ('C=CC(=O)N1C[C@H](c2ccc(Br)cc2)[C@H]1C(=O)Nc1cccc2cccnc12 [MY-3B]', 'NSUN2_C271 (Homo sapiens, UniProt Q08J23)', '% engagement NSUN2_C271', '−11'),
  ('C=CC(=O)N1C[C@H](c2ccc(Br)cc2)[C@@H]1C(=O)Nc1cccc2cccnc12', 'NSUN2_C271 (Homo sapiens, UniProt Q08J23)', '% engagement NSUN2_C271', 88.75),
  ('C=CC(=O)N1C[C@H](c2ccc(Br)cc2)[C@H]1C(=O)Nc1cccc2cccnc12 [MY-3A]', 'NSUN2_C271 (Homo sapiens, UniProt Q08J23)', '% engagement NSUN2_C271', '−8.25');

---

# Target or system: ATP9A_C31 (Homo sapiens, UniProt O75110)
# Construct: endogenous in cells; host or cells: 22Rv1
# Sequence (O75110 1-1047): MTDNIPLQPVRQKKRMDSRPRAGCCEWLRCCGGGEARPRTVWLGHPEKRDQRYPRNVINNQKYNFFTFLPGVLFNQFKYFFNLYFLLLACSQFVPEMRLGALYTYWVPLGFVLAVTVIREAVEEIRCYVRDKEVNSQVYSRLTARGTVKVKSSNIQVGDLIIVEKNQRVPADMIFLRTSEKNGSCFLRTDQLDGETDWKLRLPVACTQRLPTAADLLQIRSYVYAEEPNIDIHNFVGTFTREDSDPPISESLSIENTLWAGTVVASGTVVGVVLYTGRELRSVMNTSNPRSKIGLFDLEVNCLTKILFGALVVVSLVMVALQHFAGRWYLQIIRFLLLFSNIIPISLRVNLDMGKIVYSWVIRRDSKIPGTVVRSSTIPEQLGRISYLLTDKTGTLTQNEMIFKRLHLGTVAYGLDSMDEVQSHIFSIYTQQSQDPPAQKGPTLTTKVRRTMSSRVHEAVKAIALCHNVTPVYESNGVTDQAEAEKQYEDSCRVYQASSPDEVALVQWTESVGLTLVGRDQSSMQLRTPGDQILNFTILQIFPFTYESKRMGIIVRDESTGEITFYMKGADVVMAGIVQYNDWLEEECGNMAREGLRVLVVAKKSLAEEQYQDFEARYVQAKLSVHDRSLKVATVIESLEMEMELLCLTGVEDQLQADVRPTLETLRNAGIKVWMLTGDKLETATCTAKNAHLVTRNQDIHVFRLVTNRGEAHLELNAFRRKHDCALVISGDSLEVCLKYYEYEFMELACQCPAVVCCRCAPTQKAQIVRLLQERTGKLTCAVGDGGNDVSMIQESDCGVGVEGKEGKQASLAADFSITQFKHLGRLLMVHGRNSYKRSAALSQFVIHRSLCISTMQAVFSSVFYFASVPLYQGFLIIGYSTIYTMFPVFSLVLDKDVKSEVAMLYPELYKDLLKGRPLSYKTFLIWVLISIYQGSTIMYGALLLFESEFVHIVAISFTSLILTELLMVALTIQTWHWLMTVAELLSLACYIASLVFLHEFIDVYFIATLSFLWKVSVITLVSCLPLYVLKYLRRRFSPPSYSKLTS
# Method notes: IA-DTB cysteine engagement
# Type: binding
# Condition set: 22Rv1 cells, 20 μM probe, 1 h, relative to DMSO
Measurement kind: % engagement ATP9A_C31 (%)

INSERT INTO assay_data (molecule, units_of_measure, observed_value) VALUES
  ('C=CC(=O)N1C[C@H](c2ccc(Br)cc2)[C@H]1C(=O)Nc1cccc2cccnc12 [MY-3B]', '%', 86.5),
  ('C=CC(=O)N1C[C@@H](c2ccc(Br)cc2)[C@H]1C(=O)Nc1cccc2cccnc12', '%', 84.5),
  ('C=CC(=O)N1C[C@H](c2ccc(Br)cc2)[C@H]1C(=O)Nc1cccc2cccnc12 [MY-3A]', '%', 73),
  ('C=CC(=O)N1C[C@H](c2ccc(Br)cc2)[C@@H]1C(=O)Nc1cccc2cccnc12', '%', 79.5);
